system: Klebsiella pneumoniae; conditions: Concentration 32 ug.mL-1; ASSAY_TEST Inhibition of Bacterial Growth; detection method Absorption (OD600); MEDIA CAMHB; plate type 384well; NBS; CORNING #3640; time 18 hr
Description: Antibacterial activity against Klebsiella pneumoniae MDR ATCC 70063 (CO-ADD:GN_003); MIC in CAMBH media using NBS plates, by OD(600)
Measured potencies and affinities stand elsewhere.
The reader will find reported Inhibition values listed item by item below.
The reply should be a number in %, with the unit left off.

Which value of Inhibition has been reported for CCN(CC)CC.O=P(O)(O)OC1C[C@@H](O)[C@H](O)[C@@H]([C@H](O)CO)O1 (stereo partly specified) in the records?
34.69

====

system: Klebsiella pneumoniae; conditions: Concentration 32 ug.mL-1; ASSAY_TEST Inhibition of Bacterial Growth; detection method Absorption (OD600); MEDIA CAMHB; plate type 384well; NBS; CORNING #3640; time 18 hr
Measured potencies and affinities stand elsewhere.
Inhibition values by entry
// note: answer is a bare numeric in %

{"COMPOUND": "CCN(CC)CC.C[C@H](CC1O[C@H]([C@H](O)CO)[C@@H](O)[C@H](O)[C@@H]1O)OP(=O)(O)OC[C@H]1O[C@@H](n2cnc3c(N)ncnc32)[C@H](O)[C@@H]1O (stereo not given in full)", "MEASURED RESULT": 32.34}

Next, consider the following compound.
Looking for the measured Inhibition of CCN(CC)CC.C[C@H](CC1O[C@H]([C@@H](O)CO)[C@@H](O)[C@H](O)[C@@H]1O)OP(=O)(O)OC[C@H]1O[C@@H](n2cnc3c(N)ncnc32)[C@H](O)[C@@H]1O (stereo not given in full) , can you help?
21.04

====

test system: Klebsiella pneumoniae; details: Concentration 32 ug.mL-1; ASSAY_TEST Inhibition of Bacterial Growth; detection method Absorption (OD600); MEDIA CAMHB; plate type 384well; NBS; CORNING #3640; time 18 hr
Measured potencies and affinities stand elsewhere.
PARAMETER MEASURED: Inhibition (%)
Write it as a number; the unit % goes unstated.

{"COMPOUND": "CCN(CC)CC.C[C@@H](CC1O[C@H]([C@@H](O)CO)[C@@H](O)[C@H](O)[C@@H]1O)OP(=O)(O)O (stereo partly drawn)", "Inhibition / %": 41.76}
{"COMPOUND": "CCN(CC)CC.C[C@H](CC1O[C@H]([C@@H](O)CO)[C@@H](O)[C@H](O)[C@@H]1O)OP(=O)(O)O (stereo partly drawn)", "Inhibition / %": 38.35}

Field: next compound
Field request: Inhibition | item: CCN(CC)CC.C[C@@H](CC1O[C@H]([C@H](O)CO)[C@@H](O)[C@H](O)[C@@H]1O)OP(=O)(O)OC[C@H]1O[C@@H](n2cnc3c(N)ncnc32)[C@H](O)[C@@H]1O (stereo partly drawn)
9.8

Taken from ChEMBL document CHEMBL4513143.
